Where these numbers come from: patent US10696615B2

Tested on: RXF-393
Experiment: NCI in vitro cancer screen, Renal Cancer
Type: cell-based, human
Conditions: RXF-393
observable: TGI (µM)
Numbers only, in µM.

>>> assay_value("CC(C)=CCc1c(O)cc(/C=C/c2ccc(O)cc2)c(CC=C(C)C)c1O")
5.39
>>> assay_value("COc1cc(/C=C/c2cc(O)cc(OCC=C(C)C)c2)ccc1O")
5.46
>>> assay_value("CC(C)=CCOc1cc(O)cc(/C=C/c2ccc(O)c(O)c2)c1")
15.3
>>> assay_value("COc1cc(/C=C/c2cc(O)c(CC=C(C)C)c(O)c2)ccc1O")
18.9
>>> assay_value("COc1cc(O)cc(/C=C/c2ccc(O)c(O)c2)c1CC=C(C)C")
0.63

// sample CC(C)=CCc1c(O)cc(/C=C/c2ccc(O)c(O)c2)c(CC=C(C)C)c1O , its TGI was 3.23
